- Tested on: BT-549 breast
- assay.name: NCI-60 one-dose screen, 48 h (100 = growth as untreated, 0 = no growth, -100 = all killed)
- settings: 10 µM
This is part of a sample that, as a whole, favours compounds with a hit. Of some 83,000 tested, about 20% had one in any assay.
reported.endpoint: growth (%)
Give just the number in %; leave the unit off.

>  <compound>
CCOc1nc(-c2ccccc2)cc2c(O)c(C(=O)N/N=C/c3ccc(OC)cc3)[nH]c(=O)c12

>  <target.or.test.system>
BT-549 breast

>  <scale.unit>
%

>  <measurement>
123

$$$$

Lab note: compound O=C(NNC(=O)c1ccncc1)Nc1ccc([N+](=O)[O-])cc1 tested on BT-549 breast; recorded growth was 121

Log: BT-549 breast, compound O=C(O)CCCCSCCCCC(=O)O , growth = 110

Entry Cc1nc(N)sc1Sc1nc2ccc(Cl)cc2c(=O)n1-c1ccc(Oc2ccccc2)cc1 under BT-549 breast had growth of 63.2

Form field, growth with BT-549 breast, item Cc1cc(Nc2cccc(F)c2)nc(NCc2ccccc2)n1 : 82

Measured on BT-549 breast, Cc1ccc2nc3[nH]c(=O)[nH]c(=O)c3c(N)c2c1 has a documented growth of 99.8

* * *

- Test system: LOX IMVI melanoma
- assay.name: NCI-60 one-dose screen, 48 h (100 = growth as untreated, 0 = no growth, -100 = all killed)
- settings: 10 µM
The panel holds about 83,000 compounds, 20% with a hit somewhere; the sample as a whole holds those more often.
reported.endpoint: growth (%)
Entry rule: numbers only, all in %.

>  <compound>
CN1CCN(c2nc(-c3cccnc3)nc3sc4c(c23)CCCCCC4)CC1

>  <reported.endpoint>
growth

>  <measurement>
78.6

$$$$
>  <compound>
COc1cc(-c2nc3ccc(C)cc3[nH]2)ccc1OCc1nnc(-c2ccc(CC(C)C)cc2)o1

>  <reported.endpoint>
growth

>  <measurement>
103

$$$$
>  <compound>
CCN(CC)CCn1c(=N)n(CC(O)c2ccc(Cl)c(Cl)c2)c2ccccc21 (configuration not stated)

>  <reported.endpoint>
growth

>  <measurement>
76.1

$$$$
>  <compound>
O=C(Nc1cccc(Cl)c1)Nc1cc2ncncc2cc1OCc1cccc(F)c1

>  <reported.endpoint>
growth

>  <measurement>
21.4

$$$$

Consider O=C1CC[C@@H](C(=O)N[C@H]2CSSC[C@@H](C(=O)NCCc3ccccc3)NC(=O)[C@H](Cc3ccccc3)NC(=O)[C@@H]3CCCN3C(=O)[C@@H]3CCCN3C2=O)N1 . Its measured growth is 94.1

According to the records, this compound COc1cc(C)c2sc3ccccc3c(=O)c2c1NCCN(C)C displays growth of 26.4

* * *

- Test system: RPMI-8226 leukemia
- assay.name: NCI-60 one-dose screen, 48 h (100 = growth as untreated, 0 = no growth, -100 = all killed)
- settings: 10 µM
- Experimental: Growth inhibition of the RPMI-8226 human tumor cell line is measured as a screen for anti-cancer activity. Cells are grown in 96 well plates and exposed to the test compound for 48 hours. Compounds are tested at a single concentration, which is 10^-5 M for most compounds. The reported endpoint is percent growth (GI% or GIPRCNT), where numbers from 0 - 100% represent growth inhibition, and numbers from -100% - 0 represent cell death. For example, a value of 40 represents 60% growth inhibition. […]
The panel holds about 83,000 compounds, 20% with a hit somewhere; the sample as a whole holds those more often. Calls of active or inactive are those of the source. The calls were made as follows: active = growth percent below 10; inactive = the rest.
reported.endpoint: growth

>  <compound>
COc1ccc(C2C=C(c3ccc(OC)c(OC)c3)N=C3SC=CN32)c(Br)c1 (stereo unspecified)

>  <growth>
-12.4% (active)

$$$$
>  <compound>
COc1ccc(S(=O)(=O)Nc2cc(/C=C\c3cc(OC)c(OC)c(OC)c3)ccc2OC)cc1

>  <growth>
7.64% (active)

$$$$
>  <compound>
COc1cccc2c1C(=O)c1c(O)c3c(c(O)c1C2=O)C[C@@](O)(C(=O)COC(=O)c1ccccc1)C[C@@H]3OC1CC(N)C(O)C(C)O1 (stereo partly specified)

>  <growth>
-66.4% (active)

$$$$
>  <compound>
COc1ccc(N2CCN(c3nc(-c4ccccc4)c(C#N)c(=O)[nH]3)CC2)cc1

>  <growth>
91.3% (inactive)

$$$$
>  <compound>
Cc1ccc2oc(=O)cc(/C(=C3/C=CC=N3)c3ccc[nH]3)c2c1

>  <growth>
-16.9% (active)

$$$$

Read the next record carefully.
Briefly, growth measured for Oc1cc(O)c(Br)cc1Br : 99.4% (inactive)
